Where these numbers come from: ChEMBL document CHEMBL4689842

Test system: U2OS
Test summary: Multiplex assay against U2OS
Type: toxicity, cell-based
Details: human, 48 h, 10 µM, compound concentration 10 uM, replicate 1
Readout name: Population Healthy Nuclei (%)
Kindly provide the numeric value in % only, without the unit symbol.

compound "CCCn1c(=O)c2[nH]c(-c3cnn(Cc4cccc(C(F)(F)F)c4)c3)nc2n(CC)c1=O" , Population Healthy Nuclei (%) observed: 34

compound "CN1CCN(C(=O)C(C)(C)c2ccc(C(=O)Nc3cn4cc(-c5ccncc5)ccc4n3)cc2)CC1" , Population Healthy Nuclei (%) observed: 15

compound "O=C(Nc1ccc(-c2ccnc(Nc3ccc(N4CCOCC4)cc3)n2)cc1)[C@@H]1CCCN1" , Population Healthy Nuclei (%) observed: 48

compound "CCOc1cc(C(=O)N2CCC(N3CCN(C)CC3)CC2)ccc1Nc1ncc2c(n1)N(C1CCCC1)c1ccccc1C(=O)N2C" , Population Healthy Nuclei (%) observed: 1

compound CCOC(=O)c1c(C)[nH]c2ccc3c(c12)CN1CCc2cc(OC)ccc2C1O3 (stereo not drawn) , Population Healthy Nuclei (%) observed: 50

compound "CCCS(=O)(=O)c1nc(NC2CC2)cc(-c2ccc3c(ccn3C3CC(C)(C)NC(C)(C)C3)c2)n1" , Population Healthy Nuclei (%) observed: 1

compound CN(C)C(=O)C(CCN1CCC(O)(c2ccc(Cl)cc2)CC1)(c1ccccc1)c1ccccc1.Cl [LOPERAMIDE HYDROCHLORIDE] , Population Healthy Nuclei (%) observed: 5

compound "CCn1c(=O)c(-c2ccc(-c3cncs3)cc2Cl)cc2cnc(Nc3ccc(N4CCN(C)CC4)cc3)nc21" , Population Healthy Nuclei (%) observed: 0
